B1: CPEB3 Ribozyme (parent)
chain: UAACAGGGGGCCACAGCAGAAGCGUUCACGUCGCAGCCCCUGUCAGAUUCUGGUGAAUCUGCGAAUUCUGCUGUAUAUCUC

- Variants of: B1
- protocol details: self-cleavage, relative activity (ratio to wild type); higher = more cleavage; in vitro, sequencing
self-cleavage values by entry

mutation notation	self-cleavage
U51A C62A	0.22
A35G G36U	0.5
U72C A77C	1.07
A15G A45G	0.66
A18G C59U	0.43
G8U A15U	0.4
C11G U67A	0.27
A57U A77G	0.76
C17A U60C	0.18
G22A U67A	0.32
G33A G36A	0.07
C59G A75U	0.28
U25G U31A	0.23
C23U U76A	0.22
C38U U72C	1.01
U1A G36A	0.29
U31C C44G	0.31
U48C A64U	0.27
A47G U69G	0.68
C32G C40U	0.22
A18U G63C	0.37
A18C C38U	0.12
A35G G70A	1.13
A45U A47C	0.22
U49A A56G	0.59
G9A A77G	0.3
U1A C12A	1.14
U54C U74A	1.25
G10U C37A	0.72
U54G U60A	0.37
G42U U43C	0.43
G53C A64G	1.05
U31C A47C	0.31
G52U A56G	1.14
U54C A56U	0.52
U1C A18G	0.48
C37G U74A	1.13
C14U U26A	0.93
U25A C38A	0.18
U1C U74A	1.21
C12U A35G	1.15
U25C A65C	0.45
G10A A21G	0.24
C11G G63U	0.66
U31C G73A	1.26
G10U A57U	0.07
A5U G53A	1.14
A5G C32A	0.28
C32A C34G	0.44
A64G U69C	0.41
A57U U72C	0.89
G16A A45G	0.45
U43G U74A	0.11
G19C G53A	0.09
C23U A64U	0.16
C59U U67C	0.21
U31A U48C	0.29
G30U U49C	0.42
C44U A64G	0.21
A15G U80C	1.06
G30A U67C	0.18
G6A U69C	0.15
A35U U72C	0.54
C62U U67A	0.29
U48C U54A	0.71
A2G G30A	0.39
U25A G73A	0.36
C32A U49C	0.15
G22A U74C	0.5
G10A U49G	0.18
U1C G7A	0.09
A20U U31C	0.26
A13G G30C	0.16
A35U A64C	0.16
C11G G19C	0.48
C23U U67A	0.16
G6U U78A	0.79
G7U U66C	0.17
U1A C38G	0.45
A64G U72C	0.91
A35G	1.27
C27A A45G	0.22
A28U U49A	0.43
A45C A77G	0.25
A13U U51A	1.21
G10A A20U	0.23
A57C C62U	0.14
U58C U69A	0.3
A57U A64G	0.75
A18U U51C	0.42
A28C U41C	0.28
